This collection of values is drawn from PubChem BioAssay (NCI).

# growth listing for each entry below
# System: SF-268 CNS
# TEST_NAME: NCI-60 one-dose screen, 48 h (100 = growth as untreated, 0 = no growth, -100 = all killed)
# CONDITION_SET: 10 µM unless noted
About 83,000 compounds went through this panel and 20% of them were active in at least one assay; those are over-represented in the sample as a whole.
Answer format: numeric, % implied, no suffix.

Observe how each entry below is paired with its result.
{"columns": ["COMPOUND", "PROPERTY_NAME", "VAL"],
 "data": [
  ["COc1cc(NCCCCCNC(C)C)c2ncccc2c1", "growth", 93.5],
  ["CCOc1ccc(/C=C\\C(=O)O)cc1", "growth", 115],
  ["S=c1nn[nH]n1C1CCCCC1", "growth", 105],
  ["Nc1nc(-c2ccccn2)cc(-c2cc(-c3ccccn3)nc(N)n2)n1", "growth", 106],
  ["COC(=O)CCOc1ccccc1", "growth", 108]
]}

Lab note: SF-268 CNS assay, enter growth for `CCCCNC(=O)c1ccccc1C` here
101

Lab note: SF-268 CNS assay, enter growth for `COc1ccc2oc3c(ccc[n+]3C)c(=O)c2c1` here
101

Lab note: SF-268 CNS assay, enter growth for `CCOC(=O)c1ccc(C(=N)N)cc1` here
104

Lab note: SF-268 CNS assay, enter growth for `CC(C)(C)OC(=O)c1ccc(NCc2cc(O)ccc2O)cc1` here
16.5

Lab note: SF-268 CNS assay, enter growth for COCCCNC1=C(C#N)C(=O)NC(c2cccs2)S1 (centres undefined) here
104

---

# Test system: CCRF-CEM leukemia
# TEST_NAME: NCI-60 one-dose screen, 48 h (100 = growth as untreated, 0 = no growth, -100 = all killed)
# CONDITION_SET: 10 µM unless noted
# Procedure: Growth inhibition of the CCRF-CEM human tumor cell line is measured as a screen for anti-cancer activity. Cells are grown in 96 well plates and exposed to the test compound for 48 hours. Compounds are tested at a single concentration, which is 10^-5 M for most compounds. The reported endpoint is percent growth (GI% or GIPRCNT), where numbers from 0 - 100% represent growth inhibition, and numbers from -100% - 0 represent cell death. For example, a value of 40 represents 60% growth inhibition. […]
This is part of a sample that, as a whole, favours compounds with a hit. Of some 83,000 tested, about 20% had one in any assay.
PROPERTY_NAME: growth (%)
Answer format: numeric, % implied, no suffix.

Give a short answer stating reported growth for `ON=C(C1CCCCC1)C1CCCCC1` .
99.8

Give a short answer stating reported growth for O=C1c2ccccc2C(c2ccccc2)C1c1ccccc1 (stereo not drawn) .
72.2

Give a short answer stating reported growth for `CCOC(=O)c1ccc(C(=N)N)cc1` .
103

Give a short answer stating reported growth for `Cn1c(-c2ccccc2)cc(=O)cc1-c1ccccc1` .
79.8

Give a short answer stating reported growth for `N#CC(=S)Nc1ccc(Cl)c(Cl)c1` .
28.4

Give a short answer stating reported growth for `COc1ccc(CCNC(=S)NN)cc1OC` .
92.5

Give a short answer stating reported growth for `O=S(=O)(O)c1ccc2cc(O)ccc2c1` .
109

Give a short answer stating reported growth for `CCCC(=O)Oc1ccc2ccccc2c1` .
90.2

Give a short answer stating reported growth for `CC(C)(C)OC(=O)CC1(O)CCCCC1` .
106

Give a short answer stating reported growth for `COc1ccc(COC=O)cc1` .
103

Give a short answer stating reported growth for `CCc1ccc(OC(=O)CCl)cc1` .
104

Give a short answer stating reported growth for `CCn1c2ccc(N(C)C)cc2c2cc(N(C)C)ccc21` .
85.5

Give a short answer stating reported growth for `CCC/C(=N/NC(N)=O)c1ccco1` .
97.8
